Source listed as ChEMBL document CHEMBL1134151.

Target: Sodium channel protein type 5 subunit alpha (Homo sapiens)
Sequence (Q14524 whole entry): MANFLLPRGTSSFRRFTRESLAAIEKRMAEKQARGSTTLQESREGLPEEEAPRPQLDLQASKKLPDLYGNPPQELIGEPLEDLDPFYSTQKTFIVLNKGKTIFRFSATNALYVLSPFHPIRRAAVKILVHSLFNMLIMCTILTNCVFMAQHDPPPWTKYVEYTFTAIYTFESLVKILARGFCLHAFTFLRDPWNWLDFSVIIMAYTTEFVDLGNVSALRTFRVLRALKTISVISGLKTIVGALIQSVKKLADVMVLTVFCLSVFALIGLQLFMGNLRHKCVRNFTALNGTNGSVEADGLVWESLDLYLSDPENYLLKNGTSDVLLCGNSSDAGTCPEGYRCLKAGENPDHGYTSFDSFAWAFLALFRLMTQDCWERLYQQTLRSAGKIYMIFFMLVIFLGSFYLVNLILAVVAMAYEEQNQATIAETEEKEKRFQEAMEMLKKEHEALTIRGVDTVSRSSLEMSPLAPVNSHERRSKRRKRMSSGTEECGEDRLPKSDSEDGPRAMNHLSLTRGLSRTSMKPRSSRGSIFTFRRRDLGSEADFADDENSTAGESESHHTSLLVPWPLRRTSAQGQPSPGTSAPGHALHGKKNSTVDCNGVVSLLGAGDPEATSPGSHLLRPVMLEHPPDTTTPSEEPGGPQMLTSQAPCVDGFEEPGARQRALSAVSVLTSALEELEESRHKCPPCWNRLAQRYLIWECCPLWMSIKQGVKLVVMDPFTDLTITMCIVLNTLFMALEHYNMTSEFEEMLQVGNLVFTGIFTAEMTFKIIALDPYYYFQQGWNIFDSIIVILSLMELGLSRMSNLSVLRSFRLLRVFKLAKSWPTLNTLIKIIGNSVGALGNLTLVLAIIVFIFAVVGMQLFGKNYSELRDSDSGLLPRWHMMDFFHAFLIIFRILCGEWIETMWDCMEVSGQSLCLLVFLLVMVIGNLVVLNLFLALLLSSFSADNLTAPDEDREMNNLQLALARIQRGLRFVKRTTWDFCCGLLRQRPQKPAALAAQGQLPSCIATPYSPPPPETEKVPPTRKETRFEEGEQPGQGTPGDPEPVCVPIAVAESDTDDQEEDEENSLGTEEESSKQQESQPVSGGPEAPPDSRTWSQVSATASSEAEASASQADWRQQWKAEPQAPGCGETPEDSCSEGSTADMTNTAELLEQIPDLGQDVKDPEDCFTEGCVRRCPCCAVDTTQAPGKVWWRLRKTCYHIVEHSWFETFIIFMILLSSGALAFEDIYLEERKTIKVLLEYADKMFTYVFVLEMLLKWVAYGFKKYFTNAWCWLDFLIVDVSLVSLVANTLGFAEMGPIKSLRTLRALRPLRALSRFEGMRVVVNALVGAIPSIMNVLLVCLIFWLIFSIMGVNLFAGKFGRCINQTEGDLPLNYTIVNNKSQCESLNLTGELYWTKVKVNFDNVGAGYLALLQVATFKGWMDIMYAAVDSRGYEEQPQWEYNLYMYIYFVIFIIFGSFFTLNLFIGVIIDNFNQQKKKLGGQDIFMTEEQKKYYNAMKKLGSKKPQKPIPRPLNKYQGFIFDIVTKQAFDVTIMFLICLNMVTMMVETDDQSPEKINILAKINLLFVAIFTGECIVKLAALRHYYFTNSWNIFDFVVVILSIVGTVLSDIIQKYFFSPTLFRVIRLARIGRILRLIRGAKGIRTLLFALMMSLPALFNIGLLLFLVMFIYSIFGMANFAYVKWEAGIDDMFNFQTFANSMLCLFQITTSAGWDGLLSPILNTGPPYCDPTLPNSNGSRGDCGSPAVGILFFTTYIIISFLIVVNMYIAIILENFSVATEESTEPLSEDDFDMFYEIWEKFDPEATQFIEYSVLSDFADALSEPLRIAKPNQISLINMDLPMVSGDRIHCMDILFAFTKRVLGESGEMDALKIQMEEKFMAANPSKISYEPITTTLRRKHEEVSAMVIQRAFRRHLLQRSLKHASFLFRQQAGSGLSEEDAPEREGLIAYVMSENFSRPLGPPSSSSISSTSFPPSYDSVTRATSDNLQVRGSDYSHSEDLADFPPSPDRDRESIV
Assay: Inhibition of sodium channel blockade in CHO cells expressing human cardiac (hHI) sodium channel
Entries and their measured pIC50 follow.
Worth noting: pIC50 values are minus log10 of concentrations stated in mol/L.

Problem: Request body: readout pIC50, system Sodium channel protein type 5 subunit alpha (Homo sapiens), query Cc1ccc(C(=O)NC(=N)Nc2ccc(OC(C)C)cc2)cc1 . Return the value.
Result: 5.24

Problem: # iterate: COc1cc(NC(=N)NC(=O)c2ccc(C)cc2)cc(OC)c1OC
Result: 4.61

* * *

Test: Partition coefficient (logD)
Format: physicochemical
Details: octanol/water
measured-parameter: logD
// no unit, no text: just the number

Problem: Item under review: Cc1ccc(C(=O)NC(=N)Nc2ccc(C(C)C)cc2)cc1 . Reported logD?
Result: 4.4
